- System: Caco-2
- assay method text: cell viability relative to DMSO; higher = less toxic
- test conditions: 72 h; 1000 nM
recorded endpoint: cell viability (%)
Could you give me the number in %? Just the number is fine.

# annotated cases, reported cell viability shown
[[record]]
compound = "Cc1cc(O)c(-c2ccc([C@@H](C)CN)cc2)c2c1[nH]c(=O)c1sccc12 [OTS514]"
measurement_target = "Caco-2"
recorded_endpoint = "cell viability"
readout_units = "%"
observed = 29.9

[[record]]
compound = "CN(C)CC/C=C1\\c2ccccc2CSc2ccccc21 [dosulepin]"
measurement_target = "Caco-2"
recorded_endpoint = "cell viability"
readout_units = "%"
observed = 117

[[record]]
compound = "CCN1C(C)(C)CC(Oc2ccc(C(=O)Nc3ccc(NC(=O)Nc4cc(C(C)(C)C)on4)cc3)nc2)CC1(C)C [AC-710]"
measurement_target = "Caco-2"
recorded_endpoint = "cell viability"
readout_units = "%"
observed = 94.4

[[record]]
compound = "CC1=NN=C(c2ccc(N)cc2)c2cc3c(cc2C1)OCO3"
measurement_target = "Caco-2"
recorded_endpoint = "cell viability"
readout_units = "%"
observed = 102

[[record]]
compound = "CO[C@H]1O[C@@H]2O[C@@]3(C)CC[C@H]4[C@H](C)CC[C@@H]([C@H]1C)[C@@]24OO3 [artemether]"
measurement_target = "Caco-2"
recorded_endpoint = "cell viability"
readout_units = "%"
observed = 86.6

[[record]]
compound = "Cc1ncc(-c2ccnc(Nc3ccc(S(C)(=O)=O)cc3)n2)n1C(C)C [AZD5438]"
measurement_target = "Caco-2"
recorded_endpoint = "cell viability"
readout_units = "%"
observed = 96.8


Supply reported cell viability belonging to this compound: CC(C(=O)O)c1ccc2c(c1)[nH]c1ccc(Cl)cc12 (centres undefined) [carprofen]
95.7

Supply reported cell viability belonging to this compound: N[C@@H](CCC(=O)N[C@@H](CSN=O)C(=O)NCC(=O)O)C(=O)O [S-nitrosoglutathione]
87.9

Supply reported cell viability belonging to this compound: CCc1cnc(N2CCC(c3nc(COc4ccc(-n5cnnn5)cc4)cs3)CC2)nc1 [MBX-2982]
96.1

Source of measurements: the supplement of paper PMC13380429
